Origin of measurements: patent EP4635500A1

List of pKi values.
experimental system: KPC-3 (Klebsiella pneumoniae, UniProt Q9F663, H272Y)
Sequence (Q9F663 25-293 H272Y): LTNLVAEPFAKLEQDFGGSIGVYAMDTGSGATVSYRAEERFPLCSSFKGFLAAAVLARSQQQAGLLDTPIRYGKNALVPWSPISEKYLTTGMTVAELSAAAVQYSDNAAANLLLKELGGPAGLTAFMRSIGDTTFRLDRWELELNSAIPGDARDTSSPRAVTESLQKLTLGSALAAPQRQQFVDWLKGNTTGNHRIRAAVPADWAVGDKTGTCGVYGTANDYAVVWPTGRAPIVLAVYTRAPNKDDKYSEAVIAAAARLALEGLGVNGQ
experimental protocol: biochemical
Format: biochemical
condition info: KPC-3, class A; 30 min preincubation; n.d.: too low inhibitor activity at 100 µmol/L; read-out: Ki app
pKi: −log10 of the molar value.
parameter: pKi

1) C[C@]1(Cn2ccnn2)[C@H](C(=O)O)N2C(=O)C[C@H]2S1(=O)=O
6.57
2) O=C(O)C[C@@H]1CC[C@H](NC(=O)Cc2cccs2)B(O)O1
7.05

###

List of MIC values.
Tested on: Enterobacterales
experimental protocol: MIC, broth microdilution, CDC/FDA Antibiotic Resistance Isolate Bank (Example 7, Tables 8, 11, 12)
Assay type: cell-based
condition info: Klebsiella pneumoniae, Klebsiella pneumoniae KUB No. 5827, AR Bank #522; read-out: MIC
parameter: MIC (µg/mL)

1) CC(C)(O/N=C(\C(=O)N[C@@H]1C(=O)N2C(C(=O)[O-])=C(C[N+]3(CCNC(=O)c4ccc(O)c(O)c4Cl)CCCC3)CS[C@H]12)c1csc(N)n1)C(=O)O
2
2) NCC[C@H](O)C(=O)N[C@@H]1C[C@H](N)[C@@H](O[C@H]2O[C@H](CN)[C@@H](O)[C@H](O)[C@H]2O)[C@H](O)[C@H]1O[C@H]1O[C@H](CO)[C@@H](O)[C@H](N)[C@H]1O
4
3) C[C@H]1COc2c(N3CCN(C)CC3)c(F)cc3c(=O)c(C(=O)O)cn1c23
32

###

experimental system: KPC-8 (Klebsiella pneumoniae, UniProt Q9F663, H272Y/V239G)
experimental protocol: biochemical
pKi: −log10 of the molar value.
parameter: pKi

1. O=C(O)C[C@@H]1CC[C@H](NC(=O)Cc2cccs2)B(O)O1
6.94
2. C[C@]1(Cn2ccnn2)[C@H](C(=O)O)N2C(=O)C[C@H]2S1(=O)=O
7.28

###

Tested on: P. aeruginosa
experimental protocol: MIC, broth microdilution, CDC/FDA Antibiotic Resistance Isolate Bank (Example 7, Tables 10, 15)
Type: cell-based
condition info: Pseudomonas aeruginosa, P. aeruginosa KUB No. 5815, AR Bank # 510; read-out: MIC
List of MIC values.
parameter: MIC (ng/mL)

1. C[C@H]1[C@H](NC(=O)/C(=N\OC(C)(C)C(=O)O)c2csc(N)n2)C(=O)N1S(=O)(=O)O [Aztreonam, aztreonam]
0.5
2. O=C(O)c1cn(C2CC2)c2cc(N3CCNCC3)c(F)cc2c1=O [Ciprofloxacin, ciprofloxacin]
4
3. CO/N=C(\C(=O)N[C@@H]1C(=O)N2C(C(=O)[O-])=C(C[n+]3ccn4ncccc43)CS[C@H]12)c1nsc(N)n1 [Cefozopran, cefozopran]
4

###

List of MIC values.
Tested on: Enterobacterales
experimental protocol: MIC, broth microdilution, CDC/FDA Antibiotic Resistance Isolate Bank (Example 7, Tables 8, 11, 12)
Type: cell-based
condition info: Escherichia coli, Escherichia coli KUB No. 5796, AR Bank #452; read-out: MIC
parameter: MIC

1. C[C@H]1COc2c(N3CCN(C)CC3)c(F)cc3c(=O)c(C(=O)O)cn1c23
64 µg/mL
2. CC(C)(O/N=C(\C(=O)N[C@@H]1C(=O)N2C(C(=O)[O-])=C(C[N+]3(CCNC(=O)c4ccc(O)c(O)c4Cl)CCCC3)CS[C@H]12)c1csc(N)n1)C(=O)O
1 µg/mL
3. NCC[C@H](O)C(=O)N[C@@H]1C[C@H](N)[C@@H](O[C@H]2O[C@H](CN)[C@@H](O)[C@H](O)[C@H]2O)[C@H](O)[C@H]1O[C@H]1O[C@H](CO)[C@@H](O)[C@H](N)[C@H]1O
1 µg/mL
4. O=C(O)c1cn(C2CC2)c2cc(N3CCNCC3)c(F)cc2c1=O
> 64 µg/mL
5. CO/N=C(\C(=O)N[C@@H]1C(=O)N2C(C(=O)[O-])=C(C[n+]3ccn4ncccc43)CS[C@H]12)c1nsc(N)n1
> 64 µg/mL
6. C[C@H]1[C@H](NC(=O)/C(=N\OC(C)(C)C(=O)O)c2csc(N)n2)C(=O)N1S(=O)(=O)O
0.12 µg/mL
